Data provenance: patent US20150004100A1

Test system: Aβ+ plaques
Experiment: Tissue binding assay (fluorescence), plaques in human AD tissue sections
Parameters: key: −: No staining; +: weak staining; ++: moderate staining; +++: intense staining
Conditions: Table 2; 1 μM, human AD tissue
Readout Kind: Plaques (staining)

Known results for molecules:
Molecule | Plaques (staining)
[11CH3]Nc1ccc(-c2nc3ccc(O)cc3s2)cc1 [PiB, Pittsburgh compound B, reference compound] | ++
CC(C)NC(=O)c1nn(-c2ccc(OCCF)cc2)c(=O)c2c(N)scc12 | −
CC(C)NC(=O)c1nn(-c2ccc(F)cc2)c(=O)c2c(N)scc12 | −
COc1ccc(-n2nc(C(=O)NC(C)C)c3csc(N(C)C)c3c2=O)cc1 | −
CC(=C(C#N)C#N)c1ccc2cc(N(C)CCF)ccc2c1 [FDDNP, reference compound] | +

Recall and state the measured Plaques (staining) for CC(C)NC(=O)c1nn(-c2ccc(Cl)cc2)c(=O)c2c(N)scc12 [ATPZ, reference compound] . −

###

System: tau+ NFTs
Test: Tissue binding assay (fluorescence), NFTs in human AD tissue sections
Design: key: −: No staining; +: weak staining; ++: moderate staining; +++: intense staining
Conditions: Table 2; 10 μM, human AD tissue
Readout Kind: NFTs (staining)

Some molecules with recorded NFTs (staining):
Molecule | Test System | NFTs (staining)
CC(C)NC(=O)c1nn(-c2ccc([N+](=O)[O-])cc2)c(=O)c2c(N)scc12 [Compound 105] | tau+ NFTs | +
[11CH3]Nc1ccc(-c2nc3ccc(O)cc3s2)cc1 [PiB, Pittsburgh compound B, reference compound] | tau+ NFTs | +
CC(C)NC(=O)c1nn(-c2ccc(Cl)cc2)c(=O)c2c(N)scc12 [ATPZ, reference compound] | tau+ NFTs | ++
CC(C)NC(=O)c1nn(-c2ccc(F)cc2)c(=O)c2c(N)scc12 [Compound 14] | tau+ NFTs | −
CC(=C(C#N)C#N)c1ccc2cc(N(C)CCF)ccc2c1 [FDDNP, reference compound] | tau+ NFTs | ++

Here's the next entry for you.
Read off the recorded NFTs (staining) for CC(C)NC(=O)c1nn(-c2ccc(OCCF)cc2)c(=O)c2c(N)scc12 [Compound 38] ++

###

Assay: PAMPA (parallel artificial membrane permeability assay)
Type: in vitro ADME
Details: 10 μM, 5 h at RT; criterion >−6
Readout Kind: PAMPA Log Pe

Compound | PAMPA Log Pe
CC(C)NC(=O)c1nn(-c2ccc(O)cc2)c(=O)c2c(N)scc12 | −7.52
COc1ccc(-n2nc(C(=O)N3CCC(CF)CC3)c3csc(N)c3c2=O)cc1.Cl | −5.12
CC(C)NC(=O)c1nn(-c2ccc([N+](=O)[O-])cc2)c(=O)c2c(N)scc12 | −5.10
CC(C)NC(=O)c1nn(-c2ccc(F)cc2)c(=O)c2c(N)scc12 | −4.89
CC(C)NC(=O)c1nn(-c2ccc(Cl)cc2)c(=O)c2c(N)scc12 [ATPZ, reference compound] | −5.24
COc1ccc(-n2nc(C(=O)N3CCC(CCF)CC3)c3csc(N)c3c2=O)cc1 | −5.16
CC(C)NC(=O)c1nn(-c2ccc(OCCF)cc2)c(=O)c2c(N)scc12 | −5.02
COc1ccc(-n2nc(C(=O)N3CCN(c4cccc(F)n4)CC3)c3csc(N)c3c2=O)cc1 | −5.51
